Reported combination Emax values are given for each entry in this list.
Test system: BPH-1 (Non-Cancerous)
experimental-protocol: combination Emax (second highest fraction inhibited in the dose matrix, 72 h); higher = more inhibition; extreme values may be limits of the assay
endpoint: combination Emax

1. Cn1cnc2c(F)c(Nc3ccc(Br)cc3Cl)c(C(=O)NOCCO)cc21 [Selumetinib] + C=CCn1c(=O)c2cnc(Nc3ccc(N4CCN(C)CC4)cc3)nc2n1-c1cccc(C(C)(C)O)n1 [AZD1775] (first compound max 10 µM, partner max 1 µM): 0.535
2. CN(CCO)CC[C@H](CSc1ccccc1)Nc1ccc(S(=O)(=O)NC(=O)c2ccc(N3CCC([C@@H](O)c4ccccc4-c4ccc(Cl)cc4)CC3)cc2)cc1S(=O)(=O)C(F)(F)F [AZD4320] + CN(C)CCCOc1ccc(-c2ccc3ncc4c(c3c2)n(C2CCOCC2)c(=O)n4C)cn1 [AZD0156] (first compound max 1 µM, 7x7, partner max 1 µM): 0.474
